Target: Cytochrome P450 2D6 (Homo sapiens) (UniProt P10635)
Sequence (P10635 whole entry, looked up): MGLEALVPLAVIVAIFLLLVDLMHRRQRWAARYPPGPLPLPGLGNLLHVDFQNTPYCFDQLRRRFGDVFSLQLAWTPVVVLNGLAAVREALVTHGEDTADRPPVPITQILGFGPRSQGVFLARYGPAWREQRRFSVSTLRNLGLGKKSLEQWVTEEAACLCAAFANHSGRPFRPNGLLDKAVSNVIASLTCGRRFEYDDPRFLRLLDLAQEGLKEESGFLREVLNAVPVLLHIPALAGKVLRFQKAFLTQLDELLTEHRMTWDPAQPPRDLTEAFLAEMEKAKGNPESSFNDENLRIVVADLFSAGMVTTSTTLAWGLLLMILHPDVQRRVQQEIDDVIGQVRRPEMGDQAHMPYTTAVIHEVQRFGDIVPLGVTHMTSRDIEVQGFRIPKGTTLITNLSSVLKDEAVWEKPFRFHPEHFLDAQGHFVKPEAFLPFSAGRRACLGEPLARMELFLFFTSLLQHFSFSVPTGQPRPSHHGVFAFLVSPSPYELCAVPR
Experiment: Cytochrome panel assay with activity outcomes
Conditions: recombinant CYP, pro-luciferin dealkylation, luminescence, p450-cyp2d6; series mostly up to 57.1 µM
Among all 16,000 compounds or so, about 2,600 (16%) were called active. Another 20% or so got no clear call; they are omitted. Calls come from the whole dose curve; as a rule, active = well fitted curve in the direction sought with a large enough effect; inconclusive = small, poorly fitted or top-dose-only effect, or effect the other way; inactive = no such curve, though single readings can be large or run the other way. The list is a sample of the results.
Return exactly one item of Yes (active), No (inactive)

COMPOUND: NC(=O)C1CCN(C(=O)CN2C(=O)c3ccccc3S2(=O)=O)CC1
CLASS LABEL: No

COMPOUND: Cn1c[n+](C)cc1/C=N/O
CLASS LABEL: No

COMPOUND: CCCC/C=C/C(NC(=O)c1cccs1)c1ccccc1 (stereo unspecified)
CLASS LABEL: No

COMPOUND: CC(C)(C)CC(C)(C)c1ccc(OCOCCOCCO)c(Cc2cc(C(C)(C)CC(C)(C)C)cc(Cc3cc(C(C)(C)CC(C)(C)C)ccc3OCOCCOCCO)c2OCOCCOCCO)c1
CLASS LABEL: No

COMPOUND: Cc1ccc(-c2nn(-c3ccccc3)cc2CSC(=N)N)cc1
CLASS LABEL: Yes

COMPOUND: CS(=O)(=O)N1CCC2(CCCN(C(c3ccccc3)c3ccccc3)C2)CC1
CLASS LABEL: Yes

COMPOUND: CS(=O)(=O)N1CCC2(CCCN(c3ccncc3)C2)CC1
CLASS LABEL: No

COMPOUND: O=C1CC(N(O)C2CC(=O)N(Cc3ccccc3)C2=O)C(=O)N1Cc1ccccc1 (stereo unspecified)
CLASS LABEL: No

COMPOUND: COc1ccc(-n2c(=O)c(-c3cccs3)nc3cnc(N4CCNCC4)nc32)cc1
CLASS LABEL: No

COMPOUND: CN(C)c1ncc2nc(-c3cc(F)cc(F)c3)c(=O)n(Cc3cccs3)c2n1
CLASS LABEL: No

Below: the item to evaluate.
stdin: Identify the outcome logged in this assay for the compound shown: CCOC(=O)C1=C(C)NC(=S)NC1c1cccc(O)c1 (stereo unspecified)
stdout: No

---

Target: Cytochrome P450 2D6 (Homo sapiens)
Assay: Cytochrome panel assay with activity outcomes
Conditions: recombinant CYP, pro-luciferin dealkylation, luminescence, p450-cyp2d6; series mostly up to 57.1 µM
About 2,600 (16%) of roughly 16,000 compounds were called active. Not shown: some 20% with an inconclusive outcome. Calls follow the shape of the dose curve; as a rule, active = well fitted curve in the direction sought with a large enough effect; inconclusive = small, poorly fitted or top-dose-only effect, or effect the other way; inactive = no such curve, though single readings can be large or run the other way. A selection follows.
Select the matching outcome among true (1) = active, false (0) = inactive

MOLECULE: Cc1ccc(S(=O)(=O)c2c(C)nn(C(C)(C)C)c2OC(=O)c2cccs2)cc1
CLASS LABEL: false (0)

stdin: Called result for "COc1ccccc1-c1nccc(NC2CCNCC2)n1"
stdout: false (0)

stdin: And for "O=C(Nc1nc(-c2ccccc2)cs1)c1ccc(Br)o1" ?
stdout: false (0)

stdin: Now the same for "N[C@H](C(=O)O)[C@H](OCc1ccccc1)C(=O)O"
stdout: true (1)

---

Target: Cytochrome P450 2D6 (Homo sapiens) (UniProt P10635)
Test: Cytochrome panel assay with activity outcomes
Details: recombinant CYP, pro-luciferin dealkylation, luminescence, p450-cyp2d6; series mostly up to 57.1 µM
Hit rate of the full screen: of about 16,000 compounds, about 2,600 (16%) were called active. About 20% were inconclusive and are not listed. Calls come from the whole dose curve; as a rule, active = well fitted curve in the direction sought with a large enough effect; inconclusive = small, poorly fitted or top-dose-only effect, or effect the other way; inactive = no such curve, though single readings can be large or run the other way. A selection follows.
Pick one and only one: active, inactive

COMPOUND: CN(C)c1oc(-c2ccccc2)nc1C#N
CLASS LABEL: inactive

COMPOUND: c1ccc2c(N3CCNCC3)nc(-c3ccc4c(c3)OCO4)nc2c1
CLASS LABEL: active

COMPOUND: CN(C)c1ccc(-c2nc(N3CCNCC3)c3ccccc3n2)cc1
CLASS LABEL: active

COMPOUND: O=S(=O)(c1ccccc1)N1CCC2(CCN(Cc3ccccc3)CC2)CC1
CLASS LABEL: inactive

COMPOUND: O=C(NCCN1CCN(C(=O)C(c2ccccc2)c2ccccc2)CC1)C(=O)Nc1ccccc1
CLASS LABEL: inactive

COMPOUND: O=C1OCCC1Sc1nnnn1-c1ccccc1 (configuration not stated)
CLASS LABEL: inactive

# ---- query compound ----
stdin: Could you please tell me the result logged for "C[C@@H]1C[C@H](OC(=O)c2ccccc2O)CC(C)(C)C1" in this assay?
stdout: inactive

---

Target: Cytochrome P450 2D6 (Homo sapiens)
Experiment: Cytochrome panel assay with activity outcomes
Conditions: recombinant CYP, pro-luciferin dealkylation, luminescence, p450-cyp2d6; series mostly up to 57.1 µM
In all, about 16,000 compounds went through this assay and about 2,600 (16%) were called active. Another 20% or so got no clear call; they are omitted. The call rests on the fitted dose curve; in most records, active means well fitted curve in the direction sought with a large enough effect; inconclusive means small, poorly fitted or top-dose-only effect, or effect the other way; inactive means no such curve, though single readings can be large or run the other way. Not all results are given here.
Output constraint: value belongs to 1.0 (active), 0.0 (inactive)

COMPOUND: CCCOc1cccc(-c2cc(-c3n[nH]c(=S)n3CC)c3ccccc3n2)c1
CLASS LABEL: 1.0
//
COMPOUND: COc1ccc(CN2CCN(C(=O)CC(C)C)CC2)c(OC)c1OC
CLASS LABEL: 0.0
//
COMPOUND: Fc1ccc(-c2csc(N3CCC(c4ccccc4)C3)n2)cc1 (stereo not drawn)
CLASS LABEL: 0.0
//
COMPOUND: Cc1ccc(N(C(=O)c2csnn2)C(C(=O)NC(C)(C)C)c2cccs2)cc1 (stereo not drawn)
CLASS LABEL: 0.0
//
COMPOUND: CC[C@H](NC(C)C)[C@H](O)c1ccc(O)c(O)c1
CLASS LABEL: 1.0
//
COMPOUND: CCn1c(-c2ccoc2C)n[nH]c1=S
CLASS LABEL: 0.0
//
COMPOUND: CCOC(=O)c1cnc2c(cnn2CC)c1NN=C(C)C
CLASS LABEL: 0.0
//
COMPOUND: CCOC(=O)C1C(=O)C=C(c2ccc(NS(C)(=O)=O)cc2)CC1c1ccco1 (stereo not drawn)
CLASS LABEL: 0.0

stdin: Which outcome did this test record for the compound "CN(Cc1ccco1)c1ncncc1-c1cccc(C#N)c1" ?
stdout: 0.0

stdin: Now the compound "COC(=O)c1c(NC(=O)c2ccco2)sc2c1CCC2"
stdout: 0.0

stdin: And for "COc1ccc(N(C(=O)COc2ccccc2OC)S(=O)(=O)c2ccc(C)cc2)cc1" ?
stdout: 0.0

stdin: Field entry: "CCOc1ccc(NC(=S)N(Cc2ccc(Cl)cc2)Cc2ccco2)cc1"
stdout: 1.0

stdin: Can you handle "CN(C)/C(CN1CCOCC1)=C1\N=C(c2ccccc2)OC1=O" next?
stdout: 0.0

stdin: And what about the compound "O=C(CCc1nc2ccccc2c(=O)[nH]1)OCC(=O)N1CCN(S(=O)(=O)c2ccccc2)CC1" ?
stdout: 0.0

---

Target: Cytochrome P450 2D6 (Homo sapiens)
Assay: Cytochrome panel assay with activity outcomes
Conditions: recombinant CYP, pro-luciferin dealkylation, luminescence, p450-cyp2d6; series mostly up to 57.1 µM
The campaign covered roughly 16,000 compounds. About 2,600 (16%) were called active. Not shown: some 20% with an inconclusive outcome. Calls come from the whole dose curve; as a rule, active = well fitted curve in the direction sought with a large enough effect; inconclusive = small, poorly fitted or top-dose-only effect, or effect the other way; inactive = no such curve, though single readings can be large or run the other way. Not all results are given here.
Respond using exactly one of the listed classes: active, inactive

// below: answered compounds
COMPOUND: O=C(O)/C=C\c1ccc(O)c(O)c1
SUBJECT OF TEST: Cytochrome P450 2D6 (Homo sapiens)
CLASS LABEL: inactive

COMPOUND: COc1ccc(-c2nn(-c3ccccc3)cc2/C=N/NC(=O)c2ccc(Br)o2)cc1
SUBJECT OF TEST: Cytochrome P450 2D6 (Homo sapiens)
CLASS LABEL: inactive

COMPOUND: COCC(=O)N1CCC[C@@]2(CCN(C(=O)Nc3cccc(F)c3)C2)C1
SUBJECT OF TEST: Cytochrome P450 2D6 (Homo sapiens)
CLASS LABEL: inactive

COMPOUND: COC(=O)[C@](C)(N)Cc1ccc(O)cc1
SUBJECT OF TEST: Cytochrome P450 2D6 (Homo sapiens)
CLASS LABEL: inactive

COMPOUND: CCN(CC)c1ccc2c(Cl)cc(=O)oc2c1
SUBJECT OF TEST: Cytochrome P450 2D6 (Homo sapiens)
CLASS LABEL: active

stdin: For "CN(C(=O)CCCOc1ccc2[nH]c(=O)ccc2c1)C1CCCCC1" , which call appears in the assay record?
stdout: inactive

stdin: Would you kindly repeat that for "COc1ccc(C(=O)N2CCC3(CCN(C(=O)Nc4cccc(F)c4)CC3)CC2)cc1" ?
stdout: inactive

stdin: Please do the same for "O=C(c1ccc2c(c1)N(Cc1ccccc1)C(=O)CS2)N1CCOCC1" as well.
stdout: inactive

---

Molecular target: Cytochrome P450 2D6 (Homo sapiens)
Experiment: Cytochrome panel assay with activity outcomes
Details: recombinant CYP, pro-luciferin dealkylation, luminescence, p450-cyp2d6; series mostly up to 57.1 µM
The whole screen tested about 16,000 compounds, of which about 2,600 (16%) were called active. Roughly 20% stayed inconclusive and do not appear here. Calls follow the shape of the dose curve; as a rule, active = well fitted curve in the direction sought with a large enough effect; inconclusive = small, poorly fitted or top-dose-only effect, or effect the other way; inactive = no such curve, though single readings can be large or run the other way. The list is a sample of the results.
# output must be one of t for active, f for inactive

COMPOUND: CC(C)(C)NCC[C@@H](O)c1cc(C(F)(F)F)nc2c(C(F)(F)F)cccc12
CLASS LABEL: t

COMPOUND: COc1nc(OCCNC(C)=O)nc(N(C)C)n1
CLASS LABEL: f

COMPOUND: O=C1CC(N2CCN(C(c3ccccc3)c3ccccc3)CC2)C(=O)N1Cc1ccc(N2CCCC2=O)cc1 (stereo unspecified)
CLASS LABEL: f

stdin: Status in this test for "CCOc1cc2[nH]c(=O)n(CCC(=O)NCc3ccc(OC)cc3)c(=O)c2cc1OCC" ?
stdout: f

stdin: Could you do the same for "CC(C)c1ccc(OCc2ccc(C(=O)N3CCN(c4ccccn4)CC3)cc2)cc1" , please?
stdout: f

stdin: What do you have for "CC1CCN(C(=O)CN(C)S(=O)(=O)c2cccc3nsnc23)CC1" ?
stdout: f

The measurements presented in this section are drawn from PubChem BioAssay AID1851.
